The reported numbers originate from the supplement of paper PMC11451515.

- Tested on: NOMO1
- experiment-notes: cell viability relative to DMSO control; higher = less cytotoxic
- condition-notes: HPLM + 10% dialyzed FBS; 48 h; 1.71 µM

compound | cell viability [%]
C=C(C)[C@@H]1CC[C@]2(C(=O)O)CC[C@]3(C)[C@H](CC[C@@H]4[C@@]5(C)CC[C@H](O)C(C)(C)[C@@H]5CC[C@]43C)[C@@H]12 | 105
COc1cc2nc(N(C)CCCNC(=O)C3CCCO3)nc(N)c2cc1OC (centres undefined) | 89.7
c1cncc(CN2CCC(n3ncc4c(N5CCOCC5)nc(-c5ccc6[nH]ccc6c5)nc43)CC2)c1 | 72.7
Cn1c(=O)c2c(ncn2C)n(C)c1=O.O=C(O)CC(O)(CC(=O)O)C(=O)O | 104
OC(=O)C1=CC=C(NC2=NC3=C(C\N=C(/C4=CC(=CC=C34)Cl)C5=C(F)C=CC=C5F)C=N2)C=C1 | 45.2
O=C(OC)[C@]12CC[C@@]3(C)[C@]4(C)CC[C@H]5[C@@](C)(C)C(=O)C(=C[C@]5(C)C4=CC(=O)[C@@H]3[C@@H]2C[C@](C)(C)CC1)C#N | 96.1
FC(F)(F)c1ccc(/C=C/c2nc(COc3ccc(CCCCn4ccnn4)cc3)co2)cc1 | 79.4
COC[C@H]1OC(=O)C2=COC3=C2[C@@]1(C)\C4=C(C5CCC(=O)[C@@]5(C)C[C@H]4OC(C)=O)/C3=O (some centres undefined) | 114
OC[C@H]1O[C@@H](O[C@@H]2[C@@H](CO)O[C@](O)(CO)[C@H]2O)[C@H](O)[C@@H](O)[C@H]1O | 95.1
CC(C)C(C)/C=C/C(C)C1CCC2C3=CC=C4CC(O)CCC4(C)C3CCC21C (centres undefined) | 106
CN(C)CCOc1cc(-c2cn[nH]c2)ccc1NC(=O)C1COc2ccccc2O1 (centres undefined) | 107
COc1nccc(-c2c(-c3ccc(F)cc3)ncn2C2CCNCC2)n1 | 94.4
[NH2][Pt]1([NH2])[O]CC(=O)[O]1 | 106
Cl.Cl.Cl.O[C@@H](COc1cccc2ncccc12)CN1CCN([C@@H]2c3ccccc3[C@@H]3[C@H](c4ccccc42)C3(F)F)CC1 | 76.5
CN(C)c1ccc(O)c2c1C[C@H]1C[C@H]3[C@H](N(C)C)C(O)=C(C(N)=O)C(=O)[C@@]3(O)C(O)=C1C2=O | 111
CC1(C)O[C@@H]2C[C@H]3[C@@H]4CCC5=CC(=O)C=C[C@]5(C)[C@@]4(F)[C@@H](O)C[C@]3(C)[C@]2(C(=O)CO)O1 | 105
Oc1ccc2c3c1O[C@H]1c4[nH]c5c(c4C[C@@]4(O)[C@@H](C2)N(CC2CC2)CC[C@]314)C[C@@]1(O)[C@H]2Cc3ccc(O)c4c3[C@@]1(CCN2CC1CC1)[C@H]5O4 | 115
COC1=CC2=NC=CC(=C2C=C1)OC3=CN=C(NC(=O)C/4=C(C)/N(CC(C)(C)O)N(C4=O)C5=CC=CC=C5)C=C3 | 96.4
NC(=O)c1cnc(N[C@@H]2CCCC[C@@H]2N)nc1Nc1cccc(-n2nccn2)c1 | 116
